src = patent US10414789B2

Test system: snake venom phosphodiesterase (SVPD)
Conditions: 1 mg SVPD overnight at 37° C.; then 100 μM on DC2.4 cells; FIG. 8
Assay metric: level of IFN-β expression after incubation of the CDN with SVPD versus without SVPD

INSERT INTO assay_data (compound, experimental_value) VALUES
  ('Nc1nc2c(ncn2[C@@H]2O[C@@H]3COP(=O)(O)O[C@H]4[C@@H](O)[C@H](n5cnc6c(=O)[nH]c(N)nc65)O[C@@H]4COP(=O)(O)O[C@H]3[C@H]2O)c(=O)[nH]1 [c-di-GMP, reference compound]', 'significantly lower'),
  ('Nc1nc2c(ncn2[C@@H]2O[C@@H]3CO[P@@](=O)(S)O[C@H]4[C@@H](O)[C@H](n5cnc6c(=O)[nH]c(N)nc65)O[C@@H]4CO[P@@](=O)(S)O[C@H]3[C@H]2O)c(=O)[nH]1 [Rp, Rp dithio c-di-GMP, dithio [Rp,Rp] c-di-GMP]', 'equivalent'),
  ('Nc1ncnc2c1ncn2C1OC2COP(=O)(S)OC3C(COP(=O)(S)OC2C1O)OC(n1cnc2c(N)ncnc21)C3O (stereo not shown) [Rp, Rp dithio c-di-AMP, dithio [Rp,Rp] c-di-AMP]', 'equivalent'),
  ('Nc1ncnc2c1ncn2[C@@H]1O[C@@H]2COP(=O)(O)O[C@H]3[C@@H](O)[C@H](n4cnc5c(N)ncnc54)O[C@@H]3COP(=O)(O)O[C@H]2[C@H]1O [c-di-AMP, reference compound]', 'significantly lower');
